Target: human D2L receptor (Homo sapiens)
Construct: expressed in transfected cells
Sequence (P14416 whole entry): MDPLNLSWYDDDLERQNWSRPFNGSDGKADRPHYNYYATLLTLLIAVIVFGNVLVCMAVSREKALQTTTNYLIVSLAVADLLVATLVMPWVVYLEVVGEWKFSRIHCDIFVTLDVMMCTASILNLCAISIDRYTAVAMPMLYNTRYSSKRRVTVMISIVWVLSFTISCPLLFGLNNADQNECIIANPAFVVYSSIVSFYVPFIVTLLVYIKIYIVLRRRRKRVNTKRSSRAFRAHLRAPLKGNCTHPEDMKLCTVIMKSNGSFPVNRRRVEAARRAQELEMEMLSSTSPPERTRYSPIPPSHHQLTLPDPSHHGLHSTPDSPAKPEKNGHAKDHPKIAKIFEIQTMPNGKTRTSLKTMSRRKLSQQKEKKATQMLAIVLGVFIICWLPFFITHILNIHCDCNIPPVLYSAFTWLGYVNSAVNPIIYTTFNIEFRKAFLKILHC
Test: Fast dissociation: indirect assay of rate of dissociation from D2 receptor ([3H]spiperone binding after pre-incubation with compound)
Conditions: [3H]spiperone binding as % of total binding capacity after 5 min on filter; compound pre-incubated at 4 times its IC50; >50% = faster than clozapine
Procedure: Compounds were first screened for their D2 affinity in a binding assay using [^3H]spiperone and human D2L receptor cell membranes. Compounds at a concentration of 4 times their IC50 were first incubated for one hour with human D2L receptor cell membranes in a volume of 2 ml at 25° C., then filtered over glass-fibre filter under suction using a 40 well multividor Immediately after, the vacuum was released. […] The filter-bound radioactivity was measured in a liquid scintillation spectrometer. […]
Metric: D2 dissociation (%)

1. Fc1ccc(-c2ccc(-c3cc(N4CCNCC4)nnc3C(F)(F)F)cc2)cc1 = 48
2. Cc1ccccc1-c1cc(N2CCNCC2)nnc1C(F)(F)F = 78.5
3. N#Cc1nnc(N2CCNCC2)cc1-c1ccccc1 = 86
4. FC(F)(F)c1nnc(N2CCNCC2)cc1-c1ccccc1 [Example E1] = 75
5. Fc1ccc(-c2cc(N3CCNCC3)nnc2C(F)(F)F)cc1 = 55

* * *

Biological target: human Dopamine D3 receptor (Homo sapiens, UniProt P35462)
Construct: expressed in transfected cells; host or cells: CHO cells (membranes)
Sequence (P35462 whole entry): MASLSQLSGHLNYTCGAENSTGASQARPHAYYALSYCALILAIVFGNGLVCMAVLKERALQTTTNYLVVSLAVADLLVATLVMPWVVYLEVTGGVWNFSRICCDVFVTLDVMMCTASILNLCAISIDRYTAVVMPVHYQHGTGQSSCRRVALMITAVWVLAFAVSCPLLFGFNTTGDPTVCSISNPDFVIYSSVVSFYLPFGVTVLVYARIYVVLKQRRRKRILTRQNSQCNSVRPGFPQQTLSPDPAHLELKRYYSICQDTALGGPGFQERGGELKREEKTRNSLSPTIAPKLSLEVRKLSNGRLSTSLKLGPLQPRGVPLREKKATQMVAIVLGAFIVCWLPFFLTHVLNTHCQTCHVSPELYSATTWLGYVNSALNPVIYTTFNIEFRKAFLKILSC
Experiment: In vitro binding affinity for human D3 receptor ([125I]iodosulpride)
Settings: [125I]iodosulpride, membranes of human D3 receptor-transfected CHO cells; read-out: D3 binding pIC50 (converted)
Description: In Vitro Binding Affinity for Human D3 Receptor Frozen membranes of human Dopamine D3 receptor-transfected CHO cells were thawed, briefly homogenized using an Ultra-Turrax T25 homogeniser and diluted in 50 mM Tris-HCl assay buffer containing 120 mM NaCl, 2 mM CaCl2, 1 mM MgCl2, 5 mM KCl and 0.1% BSA (adjusted to pH 7.4 with HCl) to an appropriate protein concentration optimized for specific and non-specific binding. […]
Friendly reminder: IC50 below 100 nM is 1, at or above is -1.

1. N#Cc1nnc(N2CCNCC2)cc1-c1ccccc1 = -1
2. Clc1nnc(N2CCNCC2)cc1-c1ccccc1 = -1
3. CC1CN(c2cc(-c3ccccc3)c(C(F)(F)F)nn2)C(C)CN1 (racemic) = -1
4. Cc1csc(-c2cc(N3CCNCC3)nnc2C(F)(F)F)c1 = 1
5. FC(F)(F)c1nnc(N2CCNCC2)cc1-c1ccc(Cl)cc1 = -1
6. FC(F)(F)c1nnc(N2CCNCC2)cc1-c1ccsc1 = -1
7. COc1ccccc1-c1cc(N2CCNCC2)nnc1C(F)(F)F = -1
8. FC(F)(F)c1nnc(N2CCN(CC3CC3)CC2)cc1-c1ccccc1 = -1
9. FC(F)(F)c1nnc(N2CCNCC2)cc1-c1ccc(-c2ccccc2)cc1 = -1
10. FC(F)(F)c1nnc(N2CCNCC2)cc1-c1ccc(Br)cc1 = -1
11. FC(F)(F)c1nnc(N2CCN(Cc3cccnc3)CC2)cc1-c1ccccc1 = -1
12. Cc1cc(F)ccc1-c1cc(N2CCNCC2)nnc1C(F)(F)F = 1
13. FC(F)(F)c1nnc(N2CCN3CCCC3C2)cc1-c1ccccc1 (racemic) = -1
14. FC(F)(F)c1nnc(N2CCNCC2)cc1-c1cccc(Cl)c1 = -1
15. FC(F)(F)c1nnc(N2CCNCC2)cc1-c1cccc2ccccc12 = -1
16. FC(F)(F)c1nnc(N2CCN(Cc3ccccc3)CC2)cc1-c1ccccc1 = -1
17. Cc1cscc1-c1cc(N2CCNCC2)nnc1C(F)(F)F = -1
18. CN(C)c1ccc(-c2cc(N3CCNCC3)nnc2C(F)(F)F)cc1 = -1
19. Cc1ccc(-c2cc(N3CCNCC3)nnc2C(F)(F)F)cc1 = 1

* * *

Biological target: human Dopamine D2L receptor (Homo sapiens, UniProt P14416)
Construct: expressed in transfected cells; host or cells: CHO cells (membranes)
Sequence (P14416 whole entry): as the sequence (P14416 whole entry) above
Experiment: In vitro binding affinity for human D2L receptor ([3H]spiperone)
Settings: membranes of human D2L receptor-transfected CHO cells, read-out: D2L binding pIC50 (converted)
Friendly reminder: IC50 below 1 µM is yes, at or above is no.

1. FC(F)(F)c1nnc(N2CCNCC2)cc1-c1cccc(Cl)c1 [Example E16] = no
2. FC(F)(F)c1nnc(N2CCNCC2)cc1-c1cccc2ccccc12 [Example E18] = no
3. CC1CN(c2cc(-c3ccccc3)c(C(F)(F)F)nn2)C(C)CN1 (racemic) [Example E26] = no
4. FC(F)(F)c1nnc(N2CCNCC2)cc1-c1ccccc1 [Example E1] = no
5. Fc1ccc(-c2ccc(-c3cc(N4CCNCC4)nnc3C(F)(F)F)cc2)cc1 [Example E9] = yes
6. FC(F)(F)c1nnc(N2CCNCC2)cc1-c1cccs1 [Example E19] = no
7. FC(F)(F)c1nnc(N2CCNCC2)cc1-c1ccc2ccccc2c1 [Example E17] = no
8. CCCN1CCN(c2cc(-c3ccccc3)c(C(F)(F)F)nn2)CC1 [Example E24] = yes
9. C[C@@H]1CN(c2cc(-c3ccccc3)c(C(F)(F)F)nn2)C[C@H](C)N1 [Example E4] = no
10. Clc1nnc(N2CCNCC2)cc1-c1ccccc1 [Example E20] = no
11. FC(F)(F)c1nnc(N2CCNCC2)cc1-c1cc(Cl)ccc1Cl [Example E34] = no
12. FC(F)(F)c1nnc(N2CCNCC2)cc1-c1ccc(Br)cc1 [Example E14] = no
13. FC(F)(F)c1nnc(N2CCN(Cc3ccccn3)CC2)cc1-c1ccccc1 [Example E38] = yes
14. Fc1cccc(-c2cc(N3CCNCC3)nnc2C(F)(F)F)c1 [Example E15] = no
15. CN(C)c1ccc(-c2cc(N3CCNCC3)nnc2C(F)(F)F)cc1 [Example E32] = no
16. FC(F)(F)c1nnc(N2CCNCC2)cc1-c1ccc(-c2ccccc2)cc1 [Example E35] = no
17. COc1ccccc1-c1cc(N2CCNCC2)nnc1C(F)(F)F [Example E31] = no
18. FC(F)(F)c1nnc(N2CCN(Cc3cccnc3)CC2)cc1-c1ccccc1 [Example E37] = yes
19. Cc1ccc(-c2cc(N3CCNCC3)nnc2C(F)(F)F)cc1 [Example E11] = no
20. N#Cc1nnc(N2CCNCC2)cc1-c1ccccc1 [Example E10] = no
21. FC(F)(F)c1nnc(N2CCNCC2)cc1-c1ccsc1 [Example E7] = yes
22. Fc1ccc(CN2CCN(c3cc(-c4ccccc4)c(C(F)(F)F)nn3)CC2)cc1F [Example E21] = no
23. FC(F)(F)c1nnc(N2CCN(CC3CC3)CC2)cc1-c1ccccc1 [Example E39] = yes
24. Cc1csc(-c2cc(N3CCNCC3)nnc2C(F)(F)F)c1 [Example E30] = yes
25. CCCCN1CCN(c2cc(-c3ccccc3)c(C(F)(F)F)nn2)CC1 [Example E25] = yes
26. FC(F)(F)c1nnc(N2CCNCC2)cc1-c1ccc(Cl)s1 [Example E27] = no
27. FC(F)(F)c1nnc(N2CCN(C3CC3)CC2)cc1-c1ccccc1 [Example E23] = no
28. Oc1cccc(-c2cc(N3CCNCC3)nnc2C(F)(F)F)c1 [Example E13] = no
29. FC(F)(F)c1nnc(N2CCN(Cc3ccccc3)CC2)cc1-c1ccccc1 [Example E36] = yes

* * *

Counter-ions that a name gives are not always drawn.
Metric: melting point (°C)

1. FC(F)(F)c1nnc(N2CCNCC2)cc1-c1cc(Cl)ccc1Cl (as salt: hydrochloric acid salt) [Example E34] = 286.3
2. Fc1ccc(CN2CCN(c3cc(-c4ccccc4)c(C(F)(F)F)nn3)CC2)cc1F [Example E21] = 185.1
3. Cc1cscc1-c1cc(N2CCNCC2)nnc1C(F)(F)F [Example E29] = 101
4. FC(F)(F)c1nnc(N2CCN3CCCC3C2)cc1-c1ccccc1 (racemic) (as salt: hydrochloric acid salt) [Example E5] = 104.2
5. Fc1cccc(-c2cc(N3CCNCC3)nnc2C(F)(F)F)c1 [Example E15] = 144.7
6. FC(F)(F)c1nnc(N2CCNCC2)cc1-c1ccsc1 [Example E7] = 244.3
7. CN1CCN(c2cc(-c3ccccc3)c(C(F)(F)F)nn2)CC1 (as salt: hydrochloric acid salt) [Example E22] = 163.3
8. CN(C)c1ccc(-c2cc(N3CCNCC3)nnc2C(F)(F)F)cc1 (as salt: hydrochloric acid salt) [Example E32] = 198.7
9. FC(F)(F)c1nnc(N2CCNCC2)cc1-c1ccc(-c2ccccc2)cc1 [Example E35] = 199.1
10. Fc1ccc(-c2ccc(-c3cc(N4CCNCC4)nnc3C(F)(F)F)cc2)cc1 [Example E9] = 161.9
11. Clc1nnc(N2CCNCC2)cc1-c1ccccc1 [Example E20] = 173.9
12. FC(F)(F)c1nnc(N2CCNCC2)cc1-c1cccc2ccccc12 (as salt: hydrochloric acid salt) [Example E18] = 281.8
13. Fc1ccc(-c2cc(N3CCNCC3)nnc2C(F)(F)F)cc1 [Example E6] = 137.4
